Attribution: ChEMBL document CHEMBL5230103

assayed-system: Histone deacetylase
protocol-description: Inhibition of HDAC (unknown origin)
Assay type: protein assay, Homo sapiens
quantity-measured: IC50 (nM)

Known results for molecules:
# cpd-smiles, assayed-system, units-of-measure, experimental-result
rows = [
    ("COc1cc2ncn(Cc3ccc(C(=O)NO)cc3)c(=O)c2cc1OC", "Histone deacetylase", "nM", 370),
    ("CC(C)n1cnc2c(-c3ccc(COCCCCC(=O)NO)cc3)nc(N3CCOCC3)nc21", "Histone deacetylase", "nM", 278),
    ("O=C(CCC(=O)Nc1nnc(-c2ccc(O)cc2)s1)NO", "Histone deacetylase", "nM", 200),
    ("CC(C)n1cnc2c(-c3ccc(OCCCCC(=O)NO)cc3)nc(N3CCOCC3)nc21", "Histone deacetylase", "nM", 278),
]

(P) COc1cc(/C=C2\N=C(c3ccccc3)N(n3c(SCC(=O)NO)nnc3-c3ccccc3)C2=O)ccc1O
(Q) CC(C)n1cnc2c(-c3ccc(OCCCCCCCC(=O)NO)cc3)nc(N3CCOCC3)nc21
Of P and Q , whose reported IC50 is numerically smaller? Indicate which entry you chose by stating its label.
P
